study.system: T1, CaBdf1 BD2 (GST-tagged, wild-type) (Candida albicans (strain SC5314 / ATCC …, UniProt Q5A4W8))
T1 chain: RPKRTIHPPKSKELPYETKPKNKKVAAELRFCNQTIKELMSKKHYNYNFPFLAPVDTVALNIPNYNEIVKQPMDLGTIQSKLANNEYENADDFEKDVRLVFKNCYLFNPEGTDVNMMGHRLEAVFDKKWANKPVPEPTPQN
assay.protocol: histone peptide array (Active Motif MODified), 1 uM GST-tagged bromodomain, anti-GST detection, normalized mean intensity
Square brackets hold non-standard residues; d marks the D form. Ends that are not written are not given here. Arg(Me2s) = CN=C(NC)NCCC[C@H](N)C(=O)O; pS = N[C@@H](COP(=O)(O)O)C(=O)O
Label yes when binding score is at or above 0.003; anything below gets no.

Examples from the recorded data:
# binder, cat
records = [
    ("ARTKQTARKSTGGKAPRKQ (A Rme2a T Kme3 Q T A R K S T G G K A P R K Q)", "no"),
    ("[pS]GRGK(Ac)QGGKARAKAKSRSS [H2a 1-19]", "yes"),
    ("A[Arg(Me2s)]TK(Ac)QTARK(Me)STGGKAPRKQ", "yes"),
    ("SGRGKGGKGLGKGGAKRHR (pS G R G K G G K G L G K G G A K R H R) [H4 1-19]", "yes"),
    ("PDPAK(Ac)SAPAPKKG[pS]KKAVT [H2B 1-19]", "no"),
]

Is the recorded value of binding score equal to or greater than 0.003 for this binder? ARTKQTARKSTGGKAPRKQ (A Rme2a T Kac Q T A Rme2a K S T G G K A P R K Q)
yes

Is the recorded value of binding score equal to or greater than 0.003 for this binder? ARTKQTARKSTGGKAPRKQ (A R T Kme2 Q T A Rme2a Kme1 S T G G K A P R K Q)
yes
